# key: entry, value: residual activity
# SUBJECT OF TEST: AXL (human) (UniProt P30530)
# Sequence (P30530 whole entry, looked up): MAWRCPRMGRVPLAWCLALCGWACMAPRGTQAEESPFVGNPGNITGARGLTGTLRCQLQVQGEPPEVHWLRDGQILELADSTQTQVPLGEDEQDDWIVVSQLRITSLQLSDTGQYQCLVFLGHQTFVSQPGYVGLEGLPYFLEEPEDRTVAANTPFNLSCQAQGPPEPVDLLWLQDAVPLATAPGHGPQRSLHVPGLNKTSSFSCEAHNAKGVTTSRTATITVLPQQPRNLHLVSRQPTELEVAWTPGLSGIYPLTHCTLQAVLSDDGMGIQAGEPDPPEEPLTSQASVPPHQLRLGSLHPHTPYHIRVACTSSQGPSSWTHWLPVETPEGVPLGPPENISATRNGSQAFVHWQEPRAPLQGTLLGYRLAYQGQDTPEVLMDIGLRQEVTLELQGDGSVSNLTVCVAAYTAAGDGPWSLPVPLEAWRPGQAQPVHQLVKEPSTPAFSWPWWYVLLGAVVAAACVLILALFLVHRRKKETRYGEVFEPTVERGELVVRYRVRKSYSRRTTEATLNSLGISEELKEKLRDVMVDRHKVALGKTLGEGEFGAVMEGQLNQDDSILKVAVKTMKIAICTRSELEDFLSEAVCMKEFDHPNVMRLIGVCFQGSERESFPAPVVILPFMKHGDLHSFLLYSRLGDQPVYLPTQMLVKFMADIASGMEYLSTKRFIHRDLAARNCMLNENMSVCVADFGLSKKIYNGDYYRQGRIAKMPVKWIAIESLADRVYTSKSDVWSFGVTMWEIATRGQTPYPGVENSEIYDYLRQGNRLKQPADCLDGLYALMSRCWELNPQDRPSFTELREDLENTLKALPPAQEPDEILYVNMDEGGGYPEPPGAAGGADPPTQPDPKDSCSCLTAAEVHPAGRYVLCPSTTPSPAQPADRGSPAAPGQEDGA
# TEST METHOD NOTES: radiometric filter-binding kinase assay, Kinase HotSpot
# ASSAY CONTEXT: compound 0.5 µM; ATP 10 µM
Field: numeric (%). Do not append units.

Some molecules with known residual activity results, for comparison:
>>> observed_value("O=C(O)c1ccc2c3c1cccc3c(=O)n1c3ccccc3nc21")
94.3
>>> observed_value("Nc1ncnc2c1cnn2-c1ccccc1")
110
>>> observed_value("FC(F)(F)c1ccc(/C=C/c2nc(COc3ccc(CCCCn4ccnn4)cc3)co2)cc1")
101

Record summary for COc1cc2c(N3CCN(C(=O)Nc4ccc(OC(C)C)cc4)CC3)ncnc2cc1OCCCN1CCCCC1 : reported residual activity = 99

Field residual activity (entry c1ccc(-c2cnc(Nc3ccc(OCCN4CCCC4)cc3)s2)cc1 ) reads 97.1

Looking up O=S(=O)(NCCNC/C=C/c1ccc(Br)cc1)c1cccc2cnccc12 , I see its residual activity listed as 112

---

Known residual activity of a selection of molecules
# SUBJECT OF TEST: MLTK (human) (UniProt Q9NYL2)
# Sequence (Q9NYL2 whole entry, looked up): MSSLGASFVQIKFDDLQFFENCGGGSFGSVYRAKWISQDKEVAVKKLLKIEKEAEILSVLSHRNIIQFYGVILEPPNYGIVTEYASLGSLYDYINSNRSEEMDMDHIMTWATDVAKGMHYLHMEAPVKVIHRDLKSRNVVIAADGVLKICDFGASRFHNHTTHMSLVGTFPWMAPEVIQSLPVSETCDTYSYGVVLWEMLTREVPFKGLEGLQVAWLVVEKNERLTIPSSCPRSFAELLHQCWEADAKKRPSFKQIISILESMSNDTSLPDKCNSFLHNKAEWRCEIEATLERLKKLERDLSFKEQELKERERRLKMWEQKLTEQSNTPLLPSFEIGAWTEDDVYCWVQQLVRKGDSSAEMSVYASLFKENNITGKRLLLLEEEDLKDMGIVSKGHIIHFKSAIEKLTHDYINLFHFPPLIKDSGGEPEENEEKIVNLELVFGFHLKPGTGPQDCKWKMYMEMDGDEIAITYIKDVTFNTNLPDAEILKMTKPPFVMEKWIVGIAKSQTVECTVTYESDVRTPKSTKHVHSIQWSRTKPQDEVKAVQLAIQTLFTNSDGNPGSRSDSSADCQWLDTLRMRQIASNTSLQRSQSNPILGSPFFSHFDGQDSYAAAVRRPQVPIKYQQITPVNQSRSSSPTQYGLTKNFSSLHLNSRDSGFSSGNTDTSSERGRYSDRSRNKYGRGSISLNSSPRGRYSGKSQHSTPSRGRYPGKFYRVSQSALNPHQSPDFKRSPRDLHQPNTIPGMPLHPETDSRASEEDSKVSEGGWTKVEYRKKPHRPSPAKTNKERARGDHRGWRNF
# TEST METHOD NOTES: radiometric filter-binding kinase assay, Kinase HotSpot
# ASSAY CONTEXT: compound 0.5 µM; ATP 10 µM
Numeric answer only, unit % assumed.

For record N#CCCc1ccc2c(c1)-c1[nH]c3ccc([N+](=O)[O-])cc3c1CC(=O)N2 the listed residual activity is 88.6

// recorded residual activity for O=c1c(-c2ccc(F)cc2)c(-c2ccncc2)[nH]n1-c1ccc(Cl)cc1 : 91.2

Documented residual activity of N/C(=N\N=C/c1ccc(-c2cccc([N+](=O)[O-])c2)o1)N[N+](=O)[O-] : 98

Sample O=c1cc(N2CCOCC2)oc2c(-c3ccccc3)cccc12 ; residual activity observed: 94.2

Memo: CCOc1cc2ncnc(Nc3cccc(Br)c3)c2cc1OCC , reported residual activity: 89.8

Value of residual activity reported for the molecule COc1cc2ncnc(Nc3ccc(O)c(Br)c3)c2cc1OC is 89

Entry Cn1cc(/C=C2\C(=O)Nc3ccc(S(N)(=O)=O)cc32)c2ccccc21 , residual activity reported as 95

// sample O=C1NC(=O)c2cc(Nc3ccc(F)cc3)c(Nc3ccc(F)cc3)cc21 , its residual activity was 94.5

Sure, the documented residual activity for COc1cc2c(cc1OC)-c1[nH]nc(Nc3cccc(F)c3)c1C2 is 44.7

Given item CCCCc1c(-c2ccc(O)cc2)[nH]c2nccnc12 , the value recorded as its residual activity is 71

Value of measured residual activity for the entry COc1cc2c(N3CCN(C(=O)Nc4ccc(OC(C)C)cc4)CC3)ncnc2cc1OCCCN1CCCCC1 : 99.7

Entry FC(F)(F)c1ccc(/C=C/c2nc(COc3ccc(CCCCn4ccnn4)cc3)co2)cc1 — recorded residual activity = 98.5

Value of residual activity reported for the molecule Cc1cc(Nc2nc(-c3ccccc3)nc3ccccc23)n[nH]1 is 87.1

Reported residual activity for c1ccc(-c2cnc(Nc3ccc(OCCN4CCCC4)cc3)s2)cc1 was 25.9

The molecule O=C(c1ccccc1)c1ccc(N2CCOCC2)cc1O showed residual activity equal to 95

---

Below is a list of entries, each paired with its recorded residual activity value.
# SUBJECT OF TEST: NTRK3 (human) (UniProt Q16288)
# Sequence (Q16288 whole entry, looked up): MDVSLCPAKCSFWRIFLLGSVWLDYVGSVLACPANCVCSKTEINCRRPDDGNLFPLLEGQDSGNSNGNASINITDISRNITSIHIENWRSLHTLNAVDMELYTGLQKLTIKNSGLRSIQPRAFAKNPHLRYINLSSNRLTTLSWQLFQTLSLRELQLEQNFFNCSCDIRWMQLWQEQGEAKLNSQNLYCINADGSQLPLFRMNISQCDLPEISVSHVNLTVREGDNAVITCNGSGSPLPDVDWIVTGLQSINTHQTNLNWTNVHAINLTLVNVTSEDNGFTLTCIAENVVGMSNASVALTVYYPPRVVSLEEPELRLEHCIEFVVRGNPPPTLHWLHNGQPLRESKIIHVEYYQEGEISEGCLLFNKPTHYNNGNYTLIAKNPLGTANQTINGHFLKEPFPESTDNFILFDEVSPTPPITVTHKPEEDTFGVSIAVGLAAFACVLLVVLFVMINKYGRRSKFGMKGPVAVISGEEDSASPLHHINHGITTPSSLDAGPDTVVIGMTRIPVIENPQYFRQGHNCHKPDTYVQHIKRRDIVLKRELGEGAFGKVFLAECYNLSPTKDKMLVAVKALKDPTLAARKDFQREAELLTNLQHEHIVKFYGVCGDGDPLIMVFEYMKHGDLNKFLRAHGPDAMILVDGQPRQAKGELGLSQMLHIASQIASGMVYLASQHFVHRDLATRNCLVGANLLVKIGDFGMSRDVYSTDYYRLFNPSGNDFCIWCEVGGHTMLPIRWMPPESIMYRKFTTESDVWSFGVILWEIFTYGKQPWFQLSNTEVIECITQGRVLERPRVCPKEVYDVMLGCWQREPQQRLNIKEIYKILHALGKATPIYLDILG
# TEST METHOD NOTES: radiometric filter-binding kinase assay, Kinase HotSpot
# ASSAY CONTEXT: compound 0.5 µM; ATP 10 µM
Express your answer in %, writing the number without its unit.

>>> observed_value("COc1cc2c(cc1OC)-c1[nH]nc(Nc3cccc(F)c3)c1C2")
72.6
>>> observed_value("O=c1c2ccccc2[nH]c(=S)n1CCN1CCC(=C(c2ccc(F)cc2)c2ccc(F)cc2)CC1")
98.9
>>> observed_value("N/C(=N\\N=C/c1ccc(-c2cccc([N+](=O)[O-])c2)o1)N[N+](=O)[O-]")
104
>>> observed_value("FC(F)(F)c1ccc(/C=C/c2nc(COc3ccc(CCCCn4ccnn4)cc3)co2)cc1")
98.9
>>> observed_value("N#C/C(=C1/Nc2ccccc2S1)c1ccnc(NCCc2cccnc2)n1")
80.2

residual activity reading for COc1cc2ncnc(Nc3ccc(O)c(Br)c3)c2cc1OC : 83.4

// provenance: the kinase profiling compilation of Christmann-Franck et al. (2016)
